assay-target: T1, mouse tissue factor pathway inhibitor (TFPI) (mouse, UniProt O54819 29-289, limits assumed)
T1 construct: bought; also called mTFPI; murine TFPI
T1 sequence (looked up): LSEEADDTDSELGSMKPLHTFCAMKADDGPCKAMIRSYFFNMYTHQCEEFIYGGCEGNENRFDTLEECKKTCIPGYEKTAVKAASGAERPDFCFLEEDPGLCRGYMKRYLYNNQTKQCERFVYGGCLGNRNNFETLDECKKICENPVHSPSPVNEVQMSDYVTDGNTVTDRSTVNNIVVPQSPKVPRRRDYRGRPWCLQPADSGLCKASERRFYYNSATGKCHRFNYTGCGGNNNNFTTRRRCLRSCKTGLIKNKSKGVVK
method-summary: competitive ELISA
recorded-metric: variant/HC_D62R (ratio)
Numbers only, in ratio.

4B7 HC N32D+D62R+H107M+Y112D/LC F31I+D33R (Fab, V domains shown) VH: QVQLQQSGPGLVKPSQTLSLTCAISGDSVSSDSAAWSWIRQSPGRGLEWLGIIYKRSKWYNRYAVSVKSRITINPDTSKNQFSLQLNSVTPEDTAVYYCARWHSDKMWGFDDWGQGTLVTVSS VL: DIVMTQSPLSLPVTPGEPASISCRSSQSLVISRGNTYLNWYLQKPGQSPQLLIYKGSNRASGVPDRFSGSGSGTDFTLKISRVEAEDVGVYYCQQYDSYPLTFGQGTKVEIKR	27.9
4B7 HC N32D+D62R+H107M+Y112D/LC S32R+N35T (Fab, V domains shown) VH: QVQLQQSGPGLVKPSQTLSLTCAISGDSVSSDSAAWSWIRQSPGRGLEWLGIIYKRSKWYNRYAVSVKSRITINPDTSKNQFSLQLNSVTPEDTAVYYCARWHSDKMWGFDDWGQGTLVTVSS VL: DIVMTQSPLSLPVTPGEPASISCRSSQSLVFRDGTTYLNWYLQKPGQSPQLLIYKGSNRASGVPDRFSGSGSGTDFTLKISRVEAEDVGVYYCQQYDSYPLTFGQGTKVEIKR	29.3
4B7 HC D62R+H107M+Y112D/LC N35T+D97T (Fab, V domains shown) VH: QVQLQQSGPGLVKPSQTLSLTCAISGDSVSSNSAAWSWIRQSPGRGLEWLGIIYKRSKWYNRYAVSVKSRITINPDTSKNQFSLQLNSVTPEDTAVYYCARWHSDKMWGFDDWGQGTLVTVSS VL: DIVMTQSPLSLPVTPGEPASISCRSSQSLVFSDGTTYLNWYLQKPGQSPQLLIYKGSNRASGVPDRFSGSGSGTDFTLKISRVEAEDVGVYYCQQYTSYPLTFGQGTKVEIKR	19.4
4B7 HC N32D+D62R+H107M+Y112D/LC F31M+S32L+D33R+N35I+D97T (Fab, V domains shown) VH: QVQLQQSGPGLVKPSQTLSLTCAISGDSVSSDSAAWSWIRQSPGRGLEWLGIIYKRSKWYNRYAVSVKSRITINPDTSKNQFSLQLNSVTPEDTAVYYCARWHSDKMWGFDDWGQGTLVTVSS VL: DIVMTQSPLSLPVTPGEPASISCRSSQSLVMLRGITYLNWYLQKPGQSPQLLIYKGSNRASGVPDRFSGSGSGTDFTLKISRVEAEDVGVYYCQQYTSYPLTFGQGTKVEIKR	26.7
B41.2 (4B7 HC N32D+D62R+Y112D/LC S32R+D33F+N35I) (Fab, V domains shown) VH: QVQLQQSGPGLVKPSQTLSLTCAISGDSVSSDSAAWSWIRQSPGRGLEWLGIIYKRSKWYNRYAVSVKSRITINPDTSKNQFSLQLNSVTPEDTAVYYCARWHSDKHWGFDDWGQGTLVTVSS VL: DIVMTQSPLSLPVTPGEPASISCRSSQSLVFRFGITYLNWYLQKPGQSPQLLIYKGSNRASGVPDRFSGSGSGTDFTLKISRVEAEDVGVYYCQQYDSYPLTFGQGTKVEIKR	42

# return variant/HC_D62R for each item in the list
1. 4B7 HC N32D+D62Q+Y112D/LC S32R+D33F+N35I+D97T (Fab, V domains shown) VH: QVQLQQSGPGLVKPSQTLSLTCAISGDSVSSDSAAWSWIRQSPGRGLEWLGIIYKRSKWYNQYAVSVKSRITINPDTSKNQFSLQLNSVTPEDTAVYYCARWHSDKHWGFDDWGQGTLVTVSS VL: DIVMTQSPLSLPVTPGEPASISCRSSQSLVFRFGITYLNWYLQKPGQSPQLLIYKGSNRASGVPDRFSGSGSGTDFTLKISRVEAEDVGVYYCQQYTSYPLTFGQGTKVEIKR
2. 4B7 HC N32D+D62R+H107M+Y112D/LC S32R+D33F+N35T (Fab, V domains shown) VH: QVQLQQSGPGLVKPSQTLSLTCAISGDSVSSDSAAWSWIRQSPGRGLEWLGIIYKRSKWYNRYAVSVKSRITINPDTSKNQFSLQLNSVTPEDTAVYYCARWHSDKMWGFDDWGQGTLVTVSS VL: DIVMTQSPLSLPVTPGEPASISCRSSQSLVFRFGTTYLNWYLQKPGQSPQLLIYKGSNRASGVPDRFSGSGSGTDFTLKISRVEAEDVGVYYCQQYDSYPLTFGQGTKVEIKR
3. 4B7 HC N32D+D62Q+H107M+Y112D/LC D33R+N35T (Fab, V domains shown) VH: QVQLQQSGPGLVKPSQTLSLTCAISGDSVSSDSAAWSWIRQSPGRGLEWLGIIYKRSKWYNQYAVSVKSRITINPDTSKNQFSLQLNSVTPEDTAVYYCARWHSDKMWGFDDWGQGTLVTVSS VL: DIVMTQSPLSLPVTPGEPASISCRSSQSLVFSRGTTYLNWYLQKPGQSPQLLIYKGSNRASGVPDRFSGSGSGTDFTLKISRVEAEDVGVYYCQQYDSYPLTFGQGTKVEIKR
4. 4B7 HC N32D+D62R+Y112D/LC V30L+S32R+D33F+N35I+T36N+D97T (Fab, V domains shown) VH: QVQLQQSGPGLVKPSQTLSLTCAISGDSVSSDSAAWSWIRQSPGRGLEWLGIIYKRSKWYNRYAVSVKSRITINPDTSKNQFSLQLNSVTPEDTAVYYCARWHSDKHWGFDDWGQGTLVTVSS VL: DIVMTQSPLSLPVTPGEPASISCRSSQSLLFRFGINYLNWYLQKPGQSPQLLIYKGSNRASGVPDRFSGSGSGTDFTLKISRVEAEDVGVYYCQQYTSYPLTFGQGTKVEIKR

1. 40
2. 44.1
3. 18.8
4. 28.4

For 4B7 HC N32D+D62R+Y112D/LC S32R+D33F+N35I+T36N+D97T (Fab, V domains shown) VH: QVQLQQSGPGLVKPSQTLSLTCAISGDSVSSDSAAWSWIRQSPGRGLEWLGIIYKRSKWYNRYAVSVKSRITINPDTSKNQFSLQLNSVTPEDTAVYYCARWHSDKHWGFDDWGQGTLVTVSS VL: DIVMTQSPLSLPVTPGEPASISCRSSQSLVFRFGINYLNWYLQKPGQSPQLLIYKGSNRASGVPDRFSGSGSGTDFTLKISRVEAEDVGVYYCQQYTSYPLTFGQGTKVEIKR , what is its reported variant/HC_D62R?
35.4
